Give measured pKi for each item. Keep answers brief.
Molecular target: μ receptors (Rattus norvegicus, UniProt P33535)
Sequence (P33535 whole entry): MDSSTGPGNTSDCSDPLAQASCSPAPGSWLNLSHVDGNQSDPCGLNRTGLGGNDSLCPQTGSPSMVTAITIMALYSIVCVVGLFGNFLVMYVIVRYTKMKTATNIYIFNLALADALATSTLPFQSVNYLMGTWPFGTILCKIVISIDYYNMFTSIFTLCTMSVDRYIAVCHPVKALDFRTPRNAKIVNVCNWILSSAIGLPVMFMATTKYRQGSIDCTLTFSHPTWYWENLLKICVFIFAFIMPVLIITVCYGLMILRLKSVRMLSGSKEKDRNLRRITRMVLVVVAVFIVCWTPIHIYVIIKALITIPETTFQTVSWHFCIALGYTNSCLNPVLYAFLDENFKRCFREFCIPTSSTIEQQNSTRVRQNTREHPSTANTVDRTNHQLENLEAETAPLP
Where a SMILES comes first, the peptide text is derived from it.
Keep it numeric: pKi is minus log10 of the concentration in mol/L.

## Task Specify pKi for Cc1cc(O)cc(C)c1C[C@H](N)C(=O)N[C@H](CCCNC(=N)N)C(=O)N[C@@H](Cc1ccccc1)C(=O)N[C@@H](CCCCNC(=O)[C@]1(C)CCc2c(C)c(O)c(C)c(C)c2O1)C(N)=O [H-Dmt-D-Arg-Phe-Lys(Tro[S])-NH2, H-Dmt-D-Arg-Phe-Lys(Tro[S])—NH2] and stop.
## Result 9.60

## Task Specify pKi for Cc1cc(O)cc(C)c1C[C@H](N)C(=O)N[C@H](CCCNC(=N)N)C(=O)N[C@@H](Cc1ccccc1)C(=O)NC(CCCCNC1CC(C)(C)N([O])C(C)(C)C1)C(N)=O (stereo partly shown) and stop.
## Result 9.58

## Task Specify pKi for Cc1cc(O)cc(C)c1C[C@H](N)C(=O)N[C@H](CCCNC(=N)N)C(=O)N[C@@H](Cc1ccccc1)C(=O)N[C@@H](CCCCN)C(=O)NCCC(=O)NC1CC(C)(C)N([O])C(C)(C)C1 (HELM PEPTIDE1{[Cc1cc(O)cc(C)c1C[C@H](N)C(=O)[*:2]].[dR].F.K.[bAla].[CC1(C)CC(N[*:1])CC(C)(C)N1[O]]}$$$$V2.0) and stop.
## Result 8.34

## Task Specify pKi for Cc1cc(O)cc(C)c1C[C@H](N)C(=O)N[C@H](CCCNC(=N)N)C(=O)N[C@@H](Cc1ccccc1)C(=O)N[C@@H](CCCCNC(=O)[C@@]1(C)CCc2c(C)c(O)c(C)c(C)c2O1)C(N)=O [H-Dmt-D-Arg-Phe-Lys(Tro[R])-NH2] and stop.
## Result 9.56

----------
Give measured pKi for each item. Keep answers brief.
Where a SMILES comes first, the peptide text is derived from it.
Keep it numeric: pKi is minus log10 of the concentration in mol/L.

## Task State recorded pKi with δ receptors (Rattus norvegicus, UniProt P33533), entry Cc1cc(O)cc(C)c1C[C@H](N)C(=O)N[C@H](CCCNC(=N)N)C(=O)N[C@@H](Cc1ccccc1)C(=O)NC(CCCCNC1CC(C)(C)N([O])C(C)(C)C1)C(N)=O (stereo partly shown) , no comment.
Sequence (P33533 whole entry): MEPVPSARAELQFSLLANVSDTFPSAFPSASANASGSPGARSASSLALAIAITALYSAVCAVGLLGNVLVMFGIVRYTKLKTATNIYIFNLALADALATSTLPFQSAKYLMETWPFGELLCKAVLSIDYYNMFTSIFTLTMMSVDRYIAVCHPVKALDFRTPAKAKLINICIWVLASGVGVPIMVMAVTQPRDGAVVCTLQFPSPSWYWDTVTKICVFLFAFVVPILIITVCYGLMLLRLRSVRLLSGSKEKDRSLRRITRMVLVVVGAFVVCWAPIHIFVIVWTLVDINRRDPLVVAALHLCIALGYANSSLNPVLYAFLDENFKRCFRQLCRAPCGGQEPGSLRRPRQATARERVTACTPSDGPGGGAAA
## Result 7.52

## Task State recorded pKi with δ receptors (Rattus norvegicus, UniProt P33533), entry Cc1cc(O)cc(C)c1C[C@H](N)C(=O)N[C@H](CCCNC(=N)N)C(=O)N[C@@H](Cc1ccccc1)C(=O)N[C@@H](CCCCNC(=O)[C@]1(C)CCc2c(C)c(O)c(C)c(C)c2O1)C(N)=O [H-Dmt-D-Arg-Phe-Lys(Tro[S])-NH2, H-Dmt-D-Arg-Phe-Lys(Tro[S])—NH2] , no comment.
## Result 8.46

## Task State recorded pKi with δ receptors (Rattus norvegicus, UniProt P33533), entry Cc1cc(O)cc(C)c1C[C@H](N)C(=O)N[C@H](CCCNC(=N)N)C(=O)N[C@@H](Cc1ccccc1)C(=O)N[C@@H](CCCCN)C(=O)NCCC(=O)NC1CC(C)(C)N([O])C(C)(C)C1 (HELM PEPTIDE1{[Cc1cc(O)cc(C)c1C[C@H](N)C(=O)[*:2]].[dR].F.K.[bAla].[CC1(C)CC(N[*:1])CC(C)(C)N1[O]]}$$$$V2.0) , no comment.
## Result 8.67

## Task State recorded pKi with δ receptors (Rattus norvegicus, UniProt P33533), entry Cc1cc(O)cc(C)c1C[C@H](N)C(=O)N[C@H](CCCNC(=N)N)C(=O)N[C@@H](Cc1ccccc1)C(=O)N[C@@H](CCCCNC(=O)[C@@]1(C)CCc2c(C)c(O)c(C)c(C)c2O1)C(N)=O [H-Dmt-D-Arg-Phe-Lys(Tro[R])-NH2] , no comment.
## Result 8.44

----------
Target: δ opioid receptor (DOR) (Mus musculus, UniProt P32300)
Construct: the guinea pig ileum (GPI) and the mouse vas deferens (MVD)
Sequence (P32300 whole entry): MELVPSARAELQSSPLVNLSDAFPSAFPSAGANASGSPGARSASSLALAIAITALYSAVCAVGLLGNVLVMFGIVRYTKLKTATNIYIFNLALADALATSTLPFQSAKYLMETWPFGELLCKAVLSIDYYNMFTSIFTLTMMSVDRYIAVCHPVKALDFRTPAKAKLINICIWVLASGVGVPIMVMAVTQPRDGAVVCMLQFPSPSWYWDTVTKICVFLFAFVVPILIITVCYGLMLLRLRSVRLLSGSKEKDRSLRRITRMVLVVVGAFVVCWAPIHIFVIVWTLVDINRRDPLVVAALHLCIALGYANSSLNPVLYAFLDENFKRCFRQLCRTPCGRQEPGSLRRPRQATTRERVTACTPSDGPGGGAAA
Assay: Inhibition of electrically evoked contractions of the mouse vas deferens (MVD)
Where a SMILES comes first, the peptide text is derived from it.
Measurement Type: IC50 (nM)
Respond with the bare value in nM.

## Task Specify IC50 for Cc1cc(O)cc(C)c1C[C@H](N)C(=O)N[C@H](CCCNC(=N)N)C(=O)N[C@@H](Cc1ccccc1)C(=O)N[C@@H](CCCCNC(=O)[C@@]1(C)CCc2c(C)c(O)c(C)c(C)c2O1)C(N)=O [H-Dmt-D-Arg-Phe-Lys(Tro[R])-NH2] and stop.
## Result 0.847

## Task Specify IC50 for Cc1cc(O)cc(C)c1C[C@H](N)C(=O)N[C@H](CCCNC(=N)N)C(=O)N[C@@H](Cc1ccccc1)C(=O)N[C@@H](CCCCN)C(=O)NCCC(=O)NC1CC(C)(C)N([O])C(C)(C)C1 (HELM PEPTIDE1{[Cc1cc(O)cc(C)c1C[C@H](N)C(=O)[*:2]].[dR].F.K.[bAla].[CC1(C)CC(N[*:1])CC(C)(C)N1[O]]}$$$$V2.0) and stop.
## Result 262

## Task Specify IC50 for Cc1cc(O)cc(C)c1C[C@H](N)C(=O)N[C@H](CCCNC(=N)N)C(=O)N[C@@H](Cc1ccccc1)C(=O)N[C@@H](CCCCNC(=O)[C@]1(C)CCc2c(C)c(O)c(C)c(C)c2O1)C(N)=O [H-Dmt-D-Arg-Phe-Lys(Tro[S])-NH2, H-Dmt-D-Arg-Phe-Lys(Tro[S])—NH2] and stop.
## Result 3.76

## Task Specify IC50 for Cc1cc(O)cc(C)c1C[C@H](N)C(=O)N[C@H](CCCNC(=N)N)C(=O)N[C@@H](Cc1ccccc1)C(=O)NC(CCCCNC1CC(C)(C)N([O])C(C)(C)C1)C(N)=O (stereo partly drawn) [H-Dmt-D-Arg-Phe-Lys(NH-TEMPO)-NH2] and stop.
## Result 1.15
